For each entry below, report its dCas9 with SSAP activity (normalized) value.
# System: gene editing with dCas9
# Protocol details: Screen of 322 new SSAP proteins, gene editing activity with dCas9 (Table 5)
# Type: cell-based
# Measurement context: normalized
Numbers only.

Example entries begin here.
| Molecule | dCas9 with SSAP activity (normalized) |
| --- | --- |
| SSAP_36: SEQ ID NO: 205 (protein) SSIAAAAESAEVTPASIINKYRDDIATVLPPKLRERIDRWIRLAIGAVNSNPELISRVRADQGASMMQALMKCAALGHEPGSGLFHLVPKGSRIEGWEDYKGILQRIDRSGVYARTVIGVVYANDEYSYDQNVDERPRHVRATGDRGEPISSYAYAVYPSGAITTVAEATPEQIASSKSKARGADNAASPWRAPGAPMHRKVAVRLLEKHVATSAEDRREPISRSAANDVVIDATADYYQEP | −1.787 |
| SSAP_227: SEQ ID NO: 396; Streptococcus parauberis (protein, listed as Streptococcus parauberis) ANQLTVVNTLQSDAVKEKFEAVMGEKANGFVSSVLSVVTNNNILSKADFNSVYTSAMKAAVLDLPVEPSLGMAHIVPYKGKAQFQIGYKGLIQLALRSGQVVGLNAGKVYEGQFKSFNALTEKLDIVDIYNPKKDEPIVGYFAYMKLSNGFEKTTYWTKEQVEEHGKKYSQSYDSKFSPWQTNFDAMARKTVLKSILSTYAPLTIEMQNANDFDNGKNTGIEPLEVKDVTPETDNESLLTDLLEDEPSVNTETGEIIEDTELDLDYGQINAK | −0.774 |
| SSAP_140: SEQ ID NO: 309; Staphylococcus equorum (protein, listed as Staphylococcus equorum) ATNETLKQKVVERKPNGVKEQSPKTQLNHLLKKMAPEIQRALPKHMDSDRMARIAMTAVSNTPKLLECDQMSFIAALMQASQLGVEPNTGLGQAYLIPYAGKVQFQLSYKGLIDLATRSGQYKSIYAHEVYTNDEFEYRYGLFKDLIHIPSQEPEGNPIGYYAVYHLKNGGYDFVYWTRERVDKHAKEFSQAVQKGWTSPWITNYDAMAKKTVLKEVLKYAPKSIEMNKAVENDSTIKEEIDKDMSTVIDVTDYSEVEEQESLETGGQTSK | −0.780 |
| SSAP_90: SEQ ID NO: 259; Xenorhabdus poinarii (protein, listed as Xenorhabdus poinarii) TNTPPLAQADLQKAQPQTKVAATKDQALIQFINKPSMKAQLAAALPRHMAPDRMIRIVTTEIRKTPALANCDMQSFVGAVVQCSQLGLEPGSALGHAYLLPFGNGKSKTGQSNVQLIIGYRGMIDLARRSGQIVSISARTVRDGDQFHYEYGLNENLTHIPGENEDAPITHVYAVARLQDGGVQFEVMTRKQVEKVREKSSAGNNGPWVTHWEEMAKKTVIRRLFKYLPVSIEMQKAVILDEKADANIDQDNAAIFEGEFEEVGNDG | −0.892 |
| SSAP_311: SEQ ID NO: 480; Paenibacillus graminis (protein, listed as Paenibacillus graminis) TVAIETQVQETLDRILDSKHDALPSDFKKKRFSENCKVYVAEEKDLHKYTIDDIVANLFKGAVLGLDFLAKECHLITGGVDLKFQTDYKGEMKLTKKYSVRPMLDVYAKNVREGDIFREQIIEGRPAIHFDPLPFNASKIIGSFAIALFQDGGMVYESIPAGEIEEIRKNYGKSLGDAWEKSQGEMYKRTVLRRLCKTIETDFDAEQRLIYEMGGAFEFTKQPTRSRQQSPFNPPEESEVIQNDRAAETDQG | −1.526 |

For every record below, what is its dCas9 with SSAP activity (normalized)?
1. SSAP_266: SEQ ID NO: 435; Bacteroides stercoris (protein, listed as Bacteroides stercoris) STITTIPQLKSMLANDNVKARFKEILGKKAPGFISSIVAVANSNTLLQKAEPQSIMNAAVVAATLDLPINPNLGFAYVVPYGNQAQFQMGWRGFVQLAMRSGQYKTINVNEIYEGEIKKSNRFTGEYEFGERASDKIVGYMAYFSLINGFEKFLYMSKEDCEKHGRKFSQTYKRGTGIWSTDFDSMAKKTVLKMLLSKFGILSIEMQRAQTFDQAIIKDNLAETDIDEAEVSYNDNPDNEEARRNAMKEALQEAEVVDENTGELFNTETK
2. SSAP_226: SEQ ID NO: 395; Companilactobacillus furfuricola (protein, listed as Companilactobacillus furfuricola) VNNLAKLPIQTLVKEPKIVEKFESVLGNKSAQFVTSLINVVNSNQSLKNVDQMSVVASAMVAASLDLPINQDLGYMWLVPYGGKAQPQMGYKGYIQLAQRTGQYKHLNAVAVYEDEFQSYNPLTEQLDYEPHFKDRDSSEKPVGYVGYFELTSGFEKTVYWTRKQIDDHRQSFSKMSGKSKPSGVWATNFDAMALKTVLRNLISKWGPMSVEMQKAYESDEHATTISANDIKDIEVQEQEPATDVSQLINGSATEVNVNDSTTNSKDSE
3. SSAP_141: SEQ ID NO: 310; Hungatella hathewayi (protein, listed as Hungatella hathewayi) RRDRNVTAVKQELEKKAAGTSQAVKLTKNMTIVDMVKALEPEIKRALPSILTPERFTRMALSAINNTPKLAECTPMSFIAALMNAAQLGLEPNTPLGQAYLIPYKNKGVLECQFQLGYRGMIDLAYRNERMQSIEAQTVYEHDEFFYELGLHPALVHRPTFEDRGEIRAFYAIFRLDNGGYRFEVMSKSYVDAYAMRYSKAFTSEFSPWKSNYEGMAKKTVIKQLLKYAPVKSEFQKAITLDETVKTELSVDMSEVQNEDLSETLTAESAA

Output:
["−0.799", "−0.610", "−0.244"]
